Data provenance: patent US20070073056A1

Target: CB1-receptor (UniProt P20272)
Experiment: binding of the pyrazoline compounds to CB1-receptors (Pharmacological Methods, Part I)
Design: other: 10^−7 M; other: 10^−8 M; species or system human or rat
Details: 10^−8 M, in %
measurementType: Inhibition
Answers are plain numbers.

Below, 5 molecules whose answers are already recorded.
molecule: C[C@@H]1C(C(=O)N[C@H]2CCCC[C@@H]2O)=NN(c2ccc(Cl)cc2Cl)[C@@H]1c1ccc(Cl)cc1 (mixture of isomers) [Example 128]
measurementType: Inhibition
reportedValue: 18.0
//
molecule: CC[C@H]1C(C(=O)O)=NN(c2ccc(Cl)cc2Cl)[C@H]1c1ccc(Cl)cc1 (racemic) [Example 21]
measurementType: Inhibition
reportedValue: 11
//
molecule: C[C@H]1C(C(=O)NC2CCCCCC2)=NN(c2ccc(Cl)cc2Cl)[C@H]1c1ccc(F)cc1 (relative stereo) [Example 231]
measurementType: Inhibition
reportedValue: 23.2
//
molecule: COc1ccc([C@@H]2[C@@H](C)C(C(=O)O)=NN2c2ccc(Cl)cc2Cl)cc1 [Example 412]
measurementType: Inhibition
reportedValue: −11.1
//
molecule: CCOC(=O)C1=NN(c2ccc(Cl)cc2Cl)[C@@H](c2ccc(Cl)cc2)[C@@H]1C(F)(F)F (relative stereo) [Example 416]
measurementType: Inhibition
reportedValue: 41

Hello, I would appreciate it if you could give Inhibition for each entry below.
1. COc1ccc([C@H]2[C@@H](C)C(C(=O)NN3CCCCCC3)=NN2c2ccc(Cl)cc2Cl)cc1.Cl (relative stereo) [Example 271]
2. CCOC(=O)C1=NN(c2ccc(Cl)cc2Cl)[C@@H](c2ccccc2)[C@@H]1C (relative stereo) [Example 421]

Ans:
[30.6, 38]

Return reported Inhibition values for all items listed beneath this line.
1. C[C@H]1C(C(=O)NC2CCCCCC2)=NN(c2ccc(Cl)cc2Cl)[C@H]1c1ccc(Cl)cc1 (relative stereo) [Example 123]
2. C[C@H]1C(C(=O)O)=NN(c2ccc(Cl)cc2Cl)[C@H]1c1cccs1 (racemic) [Example 367]
3. COC[C@@H]1CCCN1NC(=O)C1=NN(c2ccc(Cl)cc2Cl)[C@H](c2ccc(Cl)cc2)[C@@H]1C.Cl (mixture of isomers) [Example 107]
4. C[C@H]1C(C(=O)NN2CCCC2)=NN(c2ccc(Cl)cc2Cl)[C@H]1c1ccc(Cl)cc1 (relative stereo) [Example 7]
5. C[C@H]1C(C(=O)NN2CCCCCC2)=NN(c2ccc(Cl)cc2Cl)[C@H]1c1ccc(Cl)cc1.Cl (relative stereo) [Example 96]
6. C[C@H]1C(C(=O)NN2CC3CCCC3C2)=NN(c2ccc(Cl)cc2Cl)[C@H]1c1ccc(F)cc1.Cl (relative stereo) [Example 233]
7. CC1CCCCC1NC(=O)C1=NN(c2ccc(Cl)cc2Cl)[C@H](c2ccc(Cl)cc2)[C@@H]1C (relative stereo) [Example 424]

Ans:
1. 39.9
2. 7.2
3. 2.7
4. 20.7
5. 65
6. 27.9
7. 39.3

For each of the items listed, what is its Inhibition?
1. C[C@@H]1C(C(=O)NN2CCN(C3CCCC3)CC2)=NN(c2ccc(Cl)cc2Cl)[C@@H]1c1ccc(Cl)cc1.Cl (relative stereo) [Example 100]
2. CC1Cc2ccccc2N1NC(=O)C1=NN(c2ccc(Cl)cc2Cl)[C@@H](c2ccc(Cl)cc2)[C@H]1C (relative stereo) [Example 113]

Ans:
5.4
24.7

Hi! Can you tell me Inhibition for each of these molecules?
1. CC1CCCC(C)N1NC(=O)C1=NN(c2ccc(Cl)cc2Cl)[C@H](c2ccc(Cl)cc2)[C@@H]1C (relative stereo) [Example 103]
2. C[C@@H]1C(C(=O)N[C@H]2C[C@H]3CC[C@]2(C)C3(C)C)=NN(c2ccc(Cl)cc2Cl)[C@@H]1c1ccc(Cl)cc1 (mixture of isomers) [Example 422]
3. COc1ccc([C@H]2[C@@H](C)C(C(=O)O)=NN2c2ccc(Cl)cc2Cl)cc1 (racemic) [Example 261]
4. C[C@@H]1C(C(=O)NN2CCCCC2)=NN(c2ccc(Cl)cc2Cl)[C@@H]1c1ccc(F)cc1.Cl (relative stereo) [Example 417]
5. C[C@@H]1C(C(=O)NN2CCCCCCC2)=NN(c2ccc(Cl)cc2Cl)[C@@H]1c1ccc(Cl)cc1 (relative stereo) [Example 120]
6. C[C@H]1C(C(=O)O)=NN(c2ccc(Cl)cc2Cl)[C@H]1c1ccc(Br)cc1 (relative stereo) [Example 413]
7. C[C@@H]1C(C(=O)NN2CCc3ccccc32)=NN(c2ccc(Cl)cc2Cl)[C@@H]1c1ccc(Br)cc1 (relative stereo) [Example 415]
8. COC[C@H]1CCCN1NC(=O)C1=NN(c2ccc(Cl)cc2Cl)[C@H](c2ccc(Cl)cc2)[C@@H]1C.Cl (mixture of isomers) [Example 106]

Ans:
19.5
−8.4
−5
14.8
37
13.8
32.3
20.4

Please go through the list and note Inhibition for each molecule.
1. C[C@H]1C(C(=O)NC2CCCCCC2)=NN(c2ccc(Cl)cc2Cl)[C@H]1c1ccc(Br)cc1 (relative stereo) [Example 211]
2. C[C@@H]1C(C(=O)O)=NN(c2ccccc2Cl)[C@@H]1c1ccc(Cl)s1 (relative stereo) [Example 363]

Ans:
[37.2, 12.2]
